This collection of values is drawn from patent US20240381868A1.

Test: Formation and stability of other peracids at room temperature (titration)
Assay type: physicochemical
Settings: 14 days
Measure name: Peracid Concentration (mol/kg)
Give bare numbers, in mol/kg.

- Compound: "O=C(O)/C=C\\C(=O)OO [Peroxymaleic, Permaleic acid]"
  Peracid Concentration (mol/kg): 0.379
- Compound: "O=C(O)C(=O)OO [Peroxyoxalic, peroxalic acid]"
  Peracid Concentration (mol/kg): 0.057

Parameters: items (list). Returns: Peracid Concentration for each item.
1. O=C(O)CC(=O)OO [Peroxymalonic, permalonic acid]
2. O=C(O)CCCC(=O)OO [Peroxyglutaric, perglutaric acid]

### Response
[0.083, 0.986]

====

Please provide measured Peracid Concentration for the entries that follow.
Experiment: Formation and stability of other peracids at room temperature (titration)
Type: physicochemical
Settings: 7 days
One number for each entry, in mol/kg.

- Chemical smiles: "O=C(O)CC(=O)OO"
  Peracid Concentration [mol/kg]: 0.200
- Chemical smiles: "O=C(O)CCCC(=O)OO"
  Peracid Concentration [mol/kg]: 1.081
- Chemical smiles: "O=C(O)/C=C\\C(=O)OO"
  Peracid Concentration [mol/kg]: 0.386

// below: Peracid Concentration requested for another molecule
### Prompt Provide Peracid Concentration value for the following molecule: O=C(O)C(=O)OO
### Response 0.066
